List of pIC50 values.
test system: 377384-186-R-J1-PDC complex spheroid viability; test: Anticancer human tumor 377384-186-R-J1-PDC patient-derived pancreatic carcinoma cell line growth inhibition [RAS]; details: curve of first compound; second compound 0.316 µM
pIC50: −log10 of the molar value.
reported-endpoint: pIC50

{"compound": "CC(=O)OC12COC1CC(O)C1(C)C(=O)C(O)C3=C(C)C(OC(=O)C(O)C(NC(=O)OC(C)(C)C)c4ccccc4)CC(O)(C(OC(=O)c4ccccc4)C21)C3(C)C (stereo unspecified) + C=CC(=O)N1CCN(c2nc(OCC3CCCN3C)nc3c(F)c(-c4nc(N)cc(C)c4C(F)(F)F)c(Cl)cc23)C(C)C1", "tested-target": "377384-186-R-J1-PDC complex spheroid viability", "recorded-measurement": "> 7.50"}
{"compound": "CCN1CCN(Cc2ccc(Nc3ncc(F)c(-c4cc(F)c5nc(C)n(C(C)C)c5c4)n3)nc2)CC1 + C#Cc1c(F)ccc2cc(O)cc(-c3ncc4c(N5CC6CCC(C5)N6)nc(OCC56CCCN5CC(F)C6)nc4c3F)c12", "tested-target": "377384-186-R-J1-PDC complex spheroid viability", "recorded-measurement": "> 8.50"}
{"compound": "CC(Nc1ccc2c(c1)OCCn1cc(N3C(=O)OCC3C(F)F)nc1-2)C(N)=O (stereo unspecified) + C#Cc1c(F)ccc2cc(O)cc(-c3ncc4c(N5CC6CCC(C5)N6)nc(OCC56CCCN5CC(F)C6)nc4c3F)c12", "tested-target": "377384-186-R-J1-PDC complex spheroid viability", "recorded-measurement": "> 7.50"}
{"compound": "O=C(c1ccc(F)c(F)c1Nc1ccc(I)cc1F)N1CC(O)([C@@H]2CCCCN2)C1 + C#Cc1c(F)ccc2cc(O)cc(-c3ncc4c(N5CC6CCC(C5)N6)nc(OCC56CCCN5CC(F)C6)nc4c3F)c12", "tested-target": "377384-186-R-J1-PDC complex spheroid viability", "recorded-measurement": "> 8.50"}
{"compound": "CCc1c2c(nc3ccc(O)cc13)-c1cc3c(c(=O)n1C2)COC(=O)[C@]3(O)CC + C#Cc1c(F)ccc2cc(O)cc(-c3ncc4c(N5CC6CCC(C5)N6)nc(OCC56CCCN5CC(F)C6)nc4c3F)c12", "tested-target": "377384-186-R-J1-PDC complex spheroid viability", "recorded-measurement": "> 9.02"}
{"compound": "CC(Nc1ccc2c(c1)OCCn1cc(N3C(=O)OCC3C(F)F)nc1-2)C(N)=O (stereo unspecified) + C=CC(=O)N1CCN(c2nc(OCC3CCCN3C)nc3c(F)c(-c4nc(N)cc(C)c4C(F)(F)F)c(Cl)cc23)C(C)C1", "tested-target": "377384-186-R-J1-PDC complex spheroid viability", "recorded-measurement": 6.59}
{"compound": "CC1(O)CCCC1n1c(=O)c(C(F)F)cc2cnc(NC3CCN(S(C)(=O)=O)CC3)nc21 (stereo unspecified) + C#Cc1c(F)ccc2cc(O)cc(-c3ncc4c(N5CC6CCC(C5)N6)nc(OCC56CCCN5CC(F)C6)nc4c3F)c12", "tested-target": "377384-186-R-J1-PDC complex spheroid viability", "recorded-measurement": "> 7.50"}
{"compound": "O=C(c1ccc(F)c(F)c1Nc1ccc(I)cc1F)N1CC(O)([C@@H]2CCCCN2)C1 + C=CC(=O)N1CCN(c2nc(OCC3CCCN3C)nc3c(F)c(-c4nc(N)cc(C)c4C(F)(F)F)c(Cl)cc23)C(C)C1", "tested-target": "377384-186-R-J1-PDC complex spheroid viability", "recorded-measurement": 7.39}
{"compound": "Cc1nc(N2CCC3(CC2)COC(C)C3N)c(CO)nc1Sc1ccnc(N)c1Cl (stereo unspecified) + C#Cc1c(F)ccc2cc(O)cc(-c3ncc4c(N5CC6CCC(C5)N6)nc(OCC56CCCN5CC(F)C6)nc4c3F)c12", "tested-target": "377384-186-R-J1-PDC complex spheroid viability", "recorded-measurement": "> 7.50"}
{"compound": "CC1(O)CCCC1n1c(=O)c(C(F)F)cc2cnc(NC3CCN(S(C)(=O)=O)CC3)nc21 (stereo unspecified) + C=CC(=O)N1CCN(c2nc(OCC3CCCN3C)nc3c(F)c(-c4nc(N)cc(C)c4C(F)(F)F)c(Cl)cc23)C(C)C1", "tested-target": "377384-186-R-J1-PDC complex spheroid viability", "recorded-measurement": 7.11}
{"compound": "C=CC(=O)N1CCN(c2nc(OCC3CCCN3C)nc3c(F)c(-c4nc(N)cc(C)c4C(F)(F)F)c(Cl)cc23)C(C)C1 (stereo unspecified) + C#Cc1c(F)ccc2cc(O)cc(-c3ncc4c(N5CC6CCC(C5)N6)nc(OCC56CCCN5CC(F)C6)nc4c3F)c12", "tested-target": "377384-186-R-J1-PDC complex spheroid viability", "recorded-measurement": "> 8.50"}

* * *

test system: 377384-186-R-J1-PDC complex spheroid viability; assay: Anticancer human tumor 377384-186-R-J1-PDC cell line growth inhibition [RAS]; conditions: second compound 0.316 µM; first compound 0.003 µM; active = viability on the fitted dose curve at most 10% of control; inactive = the rest;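 further: spheroids exposed to compounds for seven days before readout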
Outcome codes: True for active, False for inactive

{"compound": "CCc1c2c(nc3ccc(O)cc13)-c1cc3c(c(=O)n1C2)COC(=O)[C@]3(O)CC + C#Cc1c(F)ccc2cc(O)cc(-c3ncc4c(N5CC6CCC(C5)N6)nc(OCC56CCCN5CC(F)C6)nc4c3F)c12", "class-assignment": "True"}
{"compound": "CCc1c2c(nc3ccc(O)cc13)-c1cc3c(c(=O)n1C2)COC(=O)[C@]3(O)CC + C=CC(=O)N1CCN(c2nc(OCC3CCCN3C)nc3c(F)c(-c4nc(N)cc(C)c4C(F)(F)F)c(Cl)cc23)C(C)C1", "class-assignment": "False"}
{"compound": "CC1(C)CCC(Nc2ncc(C(F)(F)F)c(-c3c[nH]c4c(P(C)(C)=O)c(C#N)ccc34)n2)CN1 (centres undefined) + C=CC(=O)N1CCN(c2nc(OCC3CCCN3C)nc3c(F)c(-c4nc(N)cc(C)c4C(F)(F)F)c(Cl)cc23)C(C)C1", "class-assignment": "False"}
{"compound": "CC1(C)CCC(Nc2ncc(C(F)(F)F)c(-c3c[nH]c4c(P(C)(C)=O)c(C#N)ccc34)n2)CN1 (centres undefined) + C#Cc1c(F)ccc2cc(O)cc(-c3ncc4c(N5CC6CCC(C5)N6)nc(OCC56CCCN5CC(F)C6)nc4c3F)c12", "class-assignment": "True"}

* * *

system: 377384-186-R-J1-PDC complex spheroid viability; assay: Anticancer human tumor 377384-186-R-J1-PDC cell line growth inhibition [RAS]; details: second compound 1 µM; first compound 0.01 µM; active means viability on the fitted dose curve at most 10% of control; inactive means the rest;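 further: spheroids exposed to compounds for seven days before readout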
Outcome codes: active, inactive

{"compound": "C=CC(=O)Nc1cc(Nc2nccc(-c3cn(C)c4ccccc34)n2)c(OC)cc1N(C)CCN(C)C + C=CC(=O)N1CCN(c2nc(OCC3CCCN3C)nc3c(F)c(-c4nc(N)cc(C)c4C(F)(F)F)c(Cl)cc23)C(C)C1", "class-assignment": "inactive"}
{"compound": "O=C(c1ccc(F)c(F)c1Nc1ccc(I)cc1F)N1CC(O)([C@@H]2CCCCN2)C1 + C=CC(=O)N1CCN(c2nc(OCC3CCCN3C)nc3c(F)c(-c4nc(N)cc(C)c4C(F)(F)F)c(Cl)cc23)C(C)C1", "class-assignment": "inactive"}
{"compound": "C=CC(=O)N1CCN(c2nc(OCC3CCCN3C)nc3c(F)c(-c4nc(N)cc(C)c4C(F)(F)F)c(Cl)cc23)C(C)C1 (stereo not given) + C#Cc1c(F)ccc2cc(O)cc(-c3ncc4c(N5CC6CCC(C5)N6)nc(OCC56CCCN5CC(F)C6)nc4c3F)c12", "class-assignment": "active"}
{"compound": "O=C(c1ccc(F)c(F)c1Nc1ccc(I)cc1F)N1CC(O)([C@@H]2CCCCN2)C1 + C#Cc1c(F)ccc2cc(O)cc(-c3ncc4c(N5CC6CCC(C5)N6)nc(OCC56CCCN5CC(F)C6)nc4c3F)c12", "class-assignment": "active"}
{"compound": "CC(C)n1nc(-c2ccc3oc(N)nc3c2)c2c(N)ncnc21 + C#Cc1c(F)ccc2cc(O)cc(-c3ncc4c(N5CC6CCC(C5)N6)nc(OCC56CCCN5CC(F)C6)nc4c3F)c12", "class-assignment": "active"}

* * *

Test system: 377384-186-R-J1-PDC complex spheroid viability
Test: Anticancer human tumor 377384-186-R-J1-PDC cell line growth inhibition [RAS];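 further: spheroids exposed to compounds for seven days before readout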
Details: second compound 0.0949 µM; first compound 10 µM; stronger effect = lower value
Description: RAS pathway inhibitors in Combinations in Complex Spheroids A high-throughput screen of multi-cell type tumor spheroids was designed to identify active combinations of RAS pathway inhibitors and targeted small molecules. Complex spheroids include a stromal component modeled by human endothelial cells (HUVEC) and fibroblasts modeled by human mesenchymal stem cells (MSCs). […] Compounds. […] If the clinical Cmax for an agent had not been determined, the highest concentration tested was 10 microM. […]

{"molecule": "Cc1nc(N2CCC3(CC2)COC(C)C3N)c(CO)nc1Sc1ccnc(N)c1Cl (centres undefined) + CCn1c(-c2cccnc2C(C)OC)c2c3cc(ccc31)N1CCOC(CC(NC(=O)C(C(C)C)N(C)C(=O)C3(F)CCN(C(=O)C#CC(C)(C)N(C)C)CC3)C(=O)N3CCCC(N3)C(=O)OCC(C)(C)C2)C1", "viability, T/C": "71.6%"}
{"molecule": "CC(=O)OC12COC1CC(O)C1(C)C(=O)C(O)C3=C(C)C(OC(=O)C(O)C(NC(=O)OC(C)(C)C)c4ccccc4)CC(O)(C(OC(=O)c4ccccc4)C21)C3(C)C (centres undefined) + CCn1c(-c2cc(N3CCN(C)CC3)cnc2C(C)OC)c2c3cc(ccc31)-c1csc(n1)CC(NC(=O)C1CC1C)C(=O)N1CCCC(N1)C(=O)OCC(C)(C)C2", "viability, T/C": "1.2%"}
{"molecule": "NC1c2ccccc2OC12CCN(c1cnc3c(N4CCCc5ncccc54)n[nH]c3n1)CC2 (centres undefined) + CCn1c(-c2cccnc2C(C)OC)c2c3cc(ccc31)N1CCOC(CC(NC(=O)C(C(C)C)N(C)C(=O)C3(F)CCN(C(=O)C#CC(C)(C)N(C)C)CC3)C(=O)N3CCCC(N3)C(=O)OCC(C)(C)C2)C1", "viability, T/C": "71.9%"}
{"molecule": "CC(Nc1ccc2c(c1)OCCn1cc(N3C(=O)OCC3C(F)F)nc1-2)C(N)=O (centres undefined) + CCn1c(-c2cc(N3CCN(C)CC3)cnc2C(C)OC)c2c3cc(ccc31)-c1csc(n1)CC(NC(=O)C1CC1C)C(=O)N1CCCC(N1)C(=O)OCC(C)(C)C2", "viability, T/C": "0.09%"}
